Where do these numbers come from? They come from patent EP0234480A2.

Test system: hepatic disorder caused by carbon tetrachloride
ASSAY_METHOD_TEXT: Effect of suppressing hepatic disorder caused by carbon tetrachloride
Format: in vivo, mice
CONDITION_DETAILS: mice (dd-strain), 250 mg/kg oral in olive oil, 6 h before carbon tetrachloride 0.05 ml/kg oral; visual observation 24 h after; mean of 5; scale 0 healthy, 2 slightly affected, 4 evident disorder, 6 serious disorder
Give measured Liver disorder index for each item. Keep answers brief.
One number for each entry.

Reference set (2 entries):
{"COMPOUND": "Cc1cccc(C(=O)C(C(=O)c2ccccc2)=C2SCS2)c1 [compound 30]", "Liver disorder index": 0.6}
{"COMPOUND": "COc1ccc(C(=O)C(C(C)=O)=C2SCS2)cc1OC [compound 9]", "Liver disorder index": 0.6}

Request: Return reported Liver disorder index; argument: COc1ccc(C(=O)C(C(C)=O)=C2SCS2)c(OC)c1 [Compound No. 8]
Response: 0.6
